testedOn: Fyn (UniProt P06241)
Sequence (P06241 whole entry, looked up): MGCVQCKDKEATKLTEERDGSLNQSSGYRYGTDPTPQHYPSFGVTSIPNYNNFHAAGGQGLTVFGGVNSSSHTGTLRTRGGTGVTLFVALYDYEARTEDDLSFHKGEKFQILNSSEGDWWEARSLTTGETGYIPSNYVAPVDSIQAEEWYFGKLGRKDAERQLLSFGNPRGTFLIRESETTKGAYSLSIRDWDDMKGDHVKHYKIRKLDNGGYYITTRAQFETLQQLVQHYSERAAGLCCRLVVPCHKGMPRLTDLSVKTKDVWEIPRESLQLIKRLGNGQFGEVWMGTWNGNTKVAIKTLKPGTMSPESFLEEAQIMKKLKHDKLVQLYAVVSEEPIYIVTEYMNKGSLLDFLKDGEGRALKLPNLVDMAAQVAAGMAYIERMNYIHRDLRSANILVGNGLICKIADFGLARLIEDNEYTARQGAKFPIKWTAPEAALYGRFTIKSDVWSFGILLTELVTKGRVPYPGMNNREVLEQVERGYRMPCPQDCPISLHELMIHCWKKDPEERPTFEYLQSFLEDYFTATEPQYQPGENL
assayName: phosphorylation enrichment, bacterial display (enrichment ratio); higher = better substrate or ligand; peptides without Tyr show the background
# binarize phosphorylation enrichment: threshold 0.7 inclusive, high side Satisfied, low side Not satisfied

EWCSPYGLTPR [GRIN3B_Y601_R598C] :: Satisfied
QLQTTYPSSDN [MAX_Y115_N114T] :: Not satisfied
TSSSSYFDEPV [ARFGAP3_Y356] :: Not satisfied
KVKGEYDMTVP [AHNAK_Y964] :: Not satisfied
RQGKDYVGAIP [KDR_Y951] :: Not satisfied

Req: Is the recorded value of phosphorylation enrichment equal to or greater than 0.7 for this sequence? SSFDIYHLSRE [KIR3DL2_Y253_YF]
Resp: Satisfied

Req: Field entry: KLPFLYDDPFS [GPX2_Y127_P126L_YF]
Resp: Not satisfied

----------
testedOn: Hck (UniProt P08631)
Sequence (P08631 whole entry, looked up): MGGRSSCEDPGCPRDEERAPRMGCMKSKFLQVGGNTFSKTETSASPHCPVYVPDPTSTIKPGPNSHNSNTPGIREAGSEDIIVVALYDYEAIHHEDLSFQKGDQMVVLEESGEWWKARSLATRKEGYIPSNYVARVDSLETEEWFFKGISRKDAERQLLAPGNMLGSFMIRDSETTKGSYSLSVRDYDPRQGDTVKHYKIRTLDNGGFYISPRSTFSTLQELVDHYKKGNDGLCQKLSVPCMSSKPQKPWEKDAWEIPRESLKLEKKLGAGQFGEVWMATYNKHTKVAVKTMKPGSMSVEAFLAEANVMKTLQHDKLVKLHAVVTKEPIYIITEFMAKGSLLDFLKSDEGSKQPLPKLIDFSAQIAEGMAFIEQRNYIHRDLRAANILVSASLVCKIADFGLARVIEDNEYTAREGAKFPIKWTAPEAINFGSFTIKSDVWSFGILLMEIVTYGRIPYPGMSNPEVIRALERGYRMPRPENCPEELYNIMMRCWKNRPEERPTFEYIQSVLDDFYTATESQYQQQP
assayName: phosphorylation enrichment, bacterial display (enrichment ratio); higher = better substrate or ligand; peptides without Tyr show the background
measure: phosphorylation enrichment
One number for each entry.

SVTCTYSPDLN [TP53_Y126_A129D] :: 0.583

Can you give me phosphorylation enrichment for all of these, one by one?
1. LRFEVYGGENE [STOX1_Y610_YF]
2. TTSQLYDAMPI [PDPK1_Y9_V12M]
3. EQQNMYRLKVL [ABCC6_Y372]
4. STEAIYWRFSK [SH3PXD2B_Y42_R43W_YF]
5. GFQPDYGQPAG [SYP_Y278_YF]
6. QDDTVYMGKVT [DCTN1_Y1244]
7. LERFIYNREEF [HLA-DPB1_Y59_F64Y_YF]

Resp:
1: 0.5; 2: 8.57; 3: 0.475; 4: 2.51; 5: 0.728; 6: 1.24; 7: 1.29

----------
testedOn: Grb2 SH2 (UniProt P62993)
Sequence (P62993 whole entry, looked up): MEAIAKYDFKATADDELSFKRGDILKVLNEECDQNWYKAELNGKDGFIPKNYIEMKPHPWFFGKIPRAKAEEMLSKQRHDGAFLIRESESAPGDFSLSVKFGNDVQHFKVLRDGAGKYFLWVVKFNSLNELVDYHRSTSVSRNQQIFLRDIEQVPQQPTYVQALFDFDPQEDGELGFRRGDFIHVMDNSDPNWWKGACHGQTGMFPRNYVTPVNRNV
assayName: SH2 binding enrichment of the phosphorylated peptide, bacterial display (enrichment ratio); higher = better substrate or ligand; peptides without Tyr show the background
# binarize SH2 binding enrichment: threshold 0.9 inclusive, high side 1.0, low side 0.0

Req: Is the recorded value of SH2 binding enrichment equal to or greater than 0.9 for this sequence? SAGSSYSISSI [PAX5_Y179_G183S]
Resp: 0.0

Req: Field entry: LSDGPYSSPFE [EPOR_Y485_N487S_YF]
Resp: 0.0

Req: Field entry: EASGIYVKSVI [PATJ_Y396_I400V]
Resp: 0.0

Req: Field entry: TDKLFYIYTSG [SLC27A4_Y243]
Resp: 0.0

Req: Field entry: RLQEDYDHSYY [ESD_Y258_G257D]
Resp: 1.0

Req: Field entry: KPNMNYDKLSW [FLI1_Y332_R337W]
Resp: 1.0

Req: Field entry: SVVVPHEPPEV [TP53_Y220_Y220H]
Resp: 1.0

Req: Field entry: TRDVNYGWTIR [MT-CYB_Y75_I78T]
Resp: 1.0

Req: Field entry: ESSKAYERALS [TTC37_Y1074]
Resp: 0.0

----------
testedOn: SHP2-C SH2
assayName: SH2 binding enrichment of the phosphorylated peptide, bacterial display (enrichment ratio); higher = better substrate or ligand; peptides without Tyr show the background
measure: SH2 binding enrichment
Give bare numbers.

Some sequences with known SH2 binding enrichment results, for comparison:
CLGNQYVNVMN [SLC3A1_Y461_R456C] :: 1.11
GGDQPYSGAGD [TYRO3_Y828_R824G] :: 0.64
NRDNTYNPVSE [FGA_Y127_R129P] :: 0.443
DRLTVYIDRVR [LMNA_Y45_A43T] :: 0.919

Can you give me SH2 binding enrichment for all of these, one by one?
1. FIGVTYKNKED [PDGFRA_Y993_E996K_YF]
2. LGSNGYKKLLK [SEPSECS_Y334]

Resp:
[0.996, 0.576]

Req: Param item = RRVPVYGGRGA [QDPR_Y16_L14P] ; retrieve measured SH2 binding enrichment.
Resp: 0.774

----------
testedOn: FGFR1 (UniProt P11362)
Sequence (P11362 whole entry, looked up): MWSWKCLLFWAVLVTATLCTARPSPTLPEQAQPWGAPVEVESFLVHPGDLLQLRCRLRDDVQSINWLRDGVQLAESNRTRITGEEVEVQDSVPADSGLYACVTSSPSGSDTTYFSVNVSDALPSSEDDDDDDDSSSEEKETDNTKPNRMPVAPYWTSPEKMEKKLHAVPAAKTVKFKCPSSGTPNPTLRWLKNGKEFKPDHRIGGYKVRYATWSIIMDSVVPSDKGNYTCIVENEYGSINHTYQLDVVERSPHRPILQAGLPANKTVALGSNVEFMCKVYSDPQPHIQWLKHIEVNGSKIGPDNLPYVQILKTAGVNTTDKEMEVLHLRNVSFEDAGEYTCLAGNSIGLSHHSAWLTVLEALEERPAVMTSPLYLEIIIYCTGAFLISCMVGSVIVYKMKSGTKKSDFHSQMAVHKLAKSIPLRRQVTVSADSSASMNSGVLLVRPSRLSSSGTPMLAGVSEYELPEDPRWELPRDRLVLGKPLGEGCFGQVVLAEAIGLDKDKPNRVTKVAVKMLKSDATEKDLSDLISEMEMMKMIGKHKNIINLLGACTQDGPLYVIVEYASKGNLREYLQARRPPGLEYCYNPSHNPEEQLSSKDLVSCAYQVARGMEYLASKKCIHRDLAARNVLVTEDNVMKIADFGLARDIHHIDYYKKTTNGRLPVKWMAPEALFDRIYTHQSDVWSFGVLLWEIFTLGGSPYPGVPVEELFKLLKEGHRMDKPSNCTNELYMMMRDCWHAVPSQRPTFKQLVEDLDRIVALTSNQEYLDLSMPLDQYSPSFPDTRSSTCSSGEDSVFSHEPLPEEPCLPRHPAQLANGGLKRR
assayName: phosphorylation enrichment, bacterial display (enrichment ratio); higher = better substrate or ligand; peptides without Tyr show the background
measure: phosphorylation enrichment
Give bare numbers.

EKEKKYMLPLD [DNM2_Y563] :: 0.412
TRDVNYGWIIR [MT-CYB_Y75] :: 0.344
NFFEFYVDDPP [GCHFR_Y48_YF] :: 0.741
RQGKDYVGAIP [KDR_Y951] :: 1.44
DQIDTYELSGA [DNM1_Y354_G359A] :: 0.475

Can you give me phosphorylation enrichment for all of these, one by one?
1. SVTCTYSSALN [TP53_Y126_P128S]
2. TCFDKYTGSTY [FN1_Y101_N104S]
3. ADAGMYGVLPW [PLP1_Y207_R205G]
4. YGAHNHHPLPV [OAT_Y55_Y55H]

Resp:
[0.483, 0.556, 0.549, 0.408]

----------
testedOn: MERTK (UniProt Q12866)
Sequence (Q12866 whole entry, looked up): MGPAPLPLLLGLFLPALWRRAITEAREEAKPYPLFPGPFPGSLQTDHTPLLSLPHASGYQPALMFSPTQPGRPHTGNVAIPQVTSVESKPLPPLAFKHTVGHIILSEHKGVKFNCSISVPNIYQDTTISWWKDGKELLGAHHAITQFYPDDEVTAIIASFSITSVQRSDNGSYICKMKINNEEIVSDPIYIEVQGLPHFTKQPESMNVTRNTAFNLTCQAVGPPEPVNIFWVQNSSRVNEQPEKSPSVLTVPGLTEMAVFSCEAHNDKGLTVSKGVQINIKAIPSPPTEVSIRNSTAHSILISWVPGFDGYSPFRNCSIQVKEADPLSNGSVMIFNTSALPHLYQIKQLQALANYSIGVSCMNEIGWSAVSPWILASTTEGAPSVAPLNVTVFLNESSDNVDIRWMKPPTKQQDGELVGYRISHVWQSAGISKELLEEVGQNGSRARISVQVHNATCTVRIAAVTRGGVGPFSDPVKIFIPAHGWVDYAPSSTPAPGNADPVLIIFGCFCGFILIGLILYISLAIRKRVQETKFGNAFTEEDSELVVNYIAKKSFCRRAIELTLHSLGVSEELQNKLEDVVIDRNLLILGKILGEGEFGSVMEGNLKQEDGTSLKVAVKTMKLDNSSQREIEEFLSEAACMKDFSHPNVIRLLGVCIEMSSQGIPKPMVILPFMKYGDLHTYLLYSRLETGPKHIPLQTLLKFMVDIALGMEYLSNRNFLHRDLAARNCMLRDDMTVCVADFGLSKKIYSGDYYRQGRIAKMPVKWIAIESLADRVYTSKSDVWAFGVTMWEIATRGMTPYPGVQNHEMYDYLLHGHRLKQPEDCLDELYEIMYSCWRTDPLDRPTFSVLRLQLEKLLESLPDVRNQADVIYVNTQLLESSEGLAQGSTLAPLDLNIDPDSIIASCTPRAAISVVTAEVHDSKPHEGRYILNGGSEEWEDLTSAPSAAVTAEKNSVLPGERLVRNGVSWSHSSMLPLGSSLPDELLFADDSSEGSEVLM
assayName: phosphorylation enrichment, bacterial display (enrichment ratio); higher = better substrate or ligand; peptides without Tyr show the background
# binarize phosphorylation enrichment: threshold 0.6 inclusive, high side fulfilled, low side not fulfilled

Req: Is the recorded value of phosphorylation enrichment equal to or greater than 0.6 for this sequence? GKSDPYHATSG [GJA1_Y247]
Resp: not fulfilled

Req: Field entry: YYHCTYKQRMI [CLEC12A_Y242_K244Q]
Resp: fulfilled

Req: Field entry: VFSIDYFRVGG [NTRK2_Y706_T704I_YF]
Resp: not fulfilled

Req: Field entry: EARRVYRDIIH [ALDH5A1_Y175_G176R]
Resp: not fulfilled

Req: Field entry: CTTIHYNNMCN [TP53_Y234_Y236N]
Resp: not fulfilled

Req: Field entry: FKELVYETVRV [FSHB_Y76]
Resp: fulfilled

Req: Field entry: EICTQYEAMAS [GFAP_Y242_R239C]
Resp: not fulfilled

Req: Field entry: LENSTYQYIRV [CRB1_Y760]
Resp: fulfilled

Req: Field entry: SADIAYNYRHG [PAH_Y166_F161S]
Resp: not fulfilled

----------
testedOn: Hck (UniProt P08631)
assayName: phosphorylation enrichment, bacterial display (enrichment ratio); higher = better substrate or ligand; peptides without Tyr show the background
measure: phosphorylation enrichment
Give bare numbers.

VHVEVYDRPSP :: 1.95
KTVQDYLEKFF [MMP8_Y36_YF] :: 0.502
ADTETYLLEKS [MYH7_Y266_I263T] :: 0.512
YYHCTYKQRMI [CLEC12A_Y242_K244Q] :: 1.1
CTTIHSNYMCN [TP53_Y234_Y234S] :: 0.448

Can you give me phosphorylation enrichment for all of these, one by one?
1. ITVPAYFNDLQ [HSPA9_Y196_S200L]
2. VFPIDYFFPPQ [AR_Y552_L548F_YF]
3. HICTAYELVLA [DHCR24_Y190]

Resp:
1. 0.538
2. 0.618
3. 0.779

Can you give me phosphorylation enrichment for all of these, one by one?
1. EVVGGYSVHNA [MLH1_Y183_R182G]
2. CNSFQYGGGGG [NPPA_Y151_R150Q]
3. TQNGVYSAANY [DDX5_Y535]
4. QRKRAYVEIEF [MAK16_Y282_YF]

Resp:
0.44
0.497
8.68
0.398

Can you give me phosphorylation enrichment for all of these, one by one?
1. SARFRYLMAEK [LDHB_Y173]
2. PEVSGYCHFAD [TG_Y234_C237Y_YF]
3. EAESWYQTKFE [KRT75_Y342_YF]
4. PRLMLYNPTTF [EGFR_Y270_P266R_YF]
5. HRGHLYLAIEY [TEK_Y899_Y897H]
6. RFLERYIFNRQ [HLA-DPB1_Y57_E62Q_YF]
7. NSGFFYKTAEE [CCT6B_Y250]
8. RTEAQYRFIYM [PTPN11_Y511_Q506R]

Resp:
1. 0.435
2. 0.639
3. 0.735
4. 0.618
5. 0.572
6. 0.678
7. 0.445
8. 0.635

Can you give me phosphorylation enrichment for all of these, one by one?
1. RLGNQHVNVMN [SLC3A1_Y461_Y461H]
2. AFRHGYFDEEM [PLEC_Y2971_R2969H_YF]
3. NQILPYIKELV [PPP2R1B_Y341]
4. SVQVEYMKTIL [GLYATL2_Y127_D126E]
5. EKEQNYDLTEV [ECD_Y448]
6. AFPGEYIPTVF [RAC1_Y32]
7. GGCQEYTGAPY [NAXD_Y85]
8. MSRDVYSIDYY [NTRK2_Y702_T704I]

Resp:
0.505
0.456
0.52
0.469
0.666
0.492
0.577
4

Can you give me phosphorylation enrichment for all of these, one by one?
1. TTKAKYKTPTY [PLD2_Y573]
2. SEHLTYLEFKS [RASGRP1_Y215]
3. MRTMGYMPREM [CABP5_Y62_T65R]
4. EMFNPYYGLFE [NEDD4L_Y679]
5. RRLEPYGENFN [APOA4_Y310_V307L]
6. VAFLFYKSIGP [ADGRL4_Y302_V300L_YF]
7. WPQKLYNNFVN [MYO5C_Y526_L522P]
8. LGSNGYKKLLK [SEPSECS_Y334]

Resp:
1. 0.443
2. 5.7
3. 0.405
4. 7.91
5. 0.25
6. 0.488
7. 0.528
8. 0.635

Can you give me phosphorylation enrichment for all of these, one by one?
1. REQREYLDQLN [CCDC88B_Y1277]
2. AGQEDCDRLRP [CDC42_Y64_Y64C]
3. IGVDSYSVCKR [RPS6KA3_Y433_G431D]

Resp:
1: 0.604; 2: 0.424; 3: 0.387

Can you give me phosphorylation enrichment for all of these, one by one?
1. EIIPFYGMSTF [FNDC3B_Y175_YF]
2. LQLLGHRPVYS [CHST6_Y358_Y358H]
3. ETKEDYEKILV [ANXA1_Y335_G333E]

Resp:
1: 0.844; 2: 0.512; 3: 0.572

Can you give me phosphorylation enrichment for all of these, one by one?
1. EASGIYVKSVI [PATJ_Y396_I400V]
2. IFCIQYNICAF [MYH4_Y820_R823C]
3. PEACDYGLGGG [GSTO1_Y239]
4. QGIYGYHHYMQ [UFSP2_Y287]
5. VVQGLYKSMPK [KBTBD2_Y250]
6. FSSLGYPPPEG [ZSWIM4_Y87_YF]
7. QWRTKYETDTI [MYH7_Y1375_A1379T]
8. TVFENYVADIK [RHOA_Y42_E47K]

Resp:
[0.501, 0.45, 0.739, 8.27, 0.438, 0.472, 0.624, 0.534]

Value source: the supplement of paper PMC10065799
